# experiment_summary: PK study after intranasal administration
# Type: in vivo, mice
# experimental_parameters: female, ICR, mouse, olfactory bulb, inhaled or intranasal, 108 ug, Cmax, single intranasal, HA solution, 108 μg/10 μL, mice
attribute_measured: Cmax (ng/g)
Supply the numeric figure in ng/g, leaving out any unit text.

Data request: Quote Cmax reported for `CSc1cc(C)nc(SC)c1NC(=O)CN1CCN(CCSc2nc3ccccc3[nH]2)CC1.Cl` please.
Data returned: 274

###

# experiment_summary: PK study after intranasal administration
# Assay type: in vivo, mice
# experimental_parameters: female, Crl:CDI (ICR), mouse, plasma, inhaled or intranasal, 162 ug, Cmax, plasma, repeated (7 days) intranasal, 0.01 N HCl solution, 162 μg/50 μL, mice
attribute_measured: Cmax (ng/mL)
Give your result in ng/mL as a bare value.

Data request: Note down Cmax recorded for `CSc1cc(C)nc(SC)c1NC(=O)CN1CCN(CCSc2nc3ccccc3[nH]2)CC1.Cl`
Data returned: 870
